- experimental.system: Vascular endothelial growth factor receptor 1 (Homo sapiens, UniProt P17948)
- Sequence (P17948 whole entry): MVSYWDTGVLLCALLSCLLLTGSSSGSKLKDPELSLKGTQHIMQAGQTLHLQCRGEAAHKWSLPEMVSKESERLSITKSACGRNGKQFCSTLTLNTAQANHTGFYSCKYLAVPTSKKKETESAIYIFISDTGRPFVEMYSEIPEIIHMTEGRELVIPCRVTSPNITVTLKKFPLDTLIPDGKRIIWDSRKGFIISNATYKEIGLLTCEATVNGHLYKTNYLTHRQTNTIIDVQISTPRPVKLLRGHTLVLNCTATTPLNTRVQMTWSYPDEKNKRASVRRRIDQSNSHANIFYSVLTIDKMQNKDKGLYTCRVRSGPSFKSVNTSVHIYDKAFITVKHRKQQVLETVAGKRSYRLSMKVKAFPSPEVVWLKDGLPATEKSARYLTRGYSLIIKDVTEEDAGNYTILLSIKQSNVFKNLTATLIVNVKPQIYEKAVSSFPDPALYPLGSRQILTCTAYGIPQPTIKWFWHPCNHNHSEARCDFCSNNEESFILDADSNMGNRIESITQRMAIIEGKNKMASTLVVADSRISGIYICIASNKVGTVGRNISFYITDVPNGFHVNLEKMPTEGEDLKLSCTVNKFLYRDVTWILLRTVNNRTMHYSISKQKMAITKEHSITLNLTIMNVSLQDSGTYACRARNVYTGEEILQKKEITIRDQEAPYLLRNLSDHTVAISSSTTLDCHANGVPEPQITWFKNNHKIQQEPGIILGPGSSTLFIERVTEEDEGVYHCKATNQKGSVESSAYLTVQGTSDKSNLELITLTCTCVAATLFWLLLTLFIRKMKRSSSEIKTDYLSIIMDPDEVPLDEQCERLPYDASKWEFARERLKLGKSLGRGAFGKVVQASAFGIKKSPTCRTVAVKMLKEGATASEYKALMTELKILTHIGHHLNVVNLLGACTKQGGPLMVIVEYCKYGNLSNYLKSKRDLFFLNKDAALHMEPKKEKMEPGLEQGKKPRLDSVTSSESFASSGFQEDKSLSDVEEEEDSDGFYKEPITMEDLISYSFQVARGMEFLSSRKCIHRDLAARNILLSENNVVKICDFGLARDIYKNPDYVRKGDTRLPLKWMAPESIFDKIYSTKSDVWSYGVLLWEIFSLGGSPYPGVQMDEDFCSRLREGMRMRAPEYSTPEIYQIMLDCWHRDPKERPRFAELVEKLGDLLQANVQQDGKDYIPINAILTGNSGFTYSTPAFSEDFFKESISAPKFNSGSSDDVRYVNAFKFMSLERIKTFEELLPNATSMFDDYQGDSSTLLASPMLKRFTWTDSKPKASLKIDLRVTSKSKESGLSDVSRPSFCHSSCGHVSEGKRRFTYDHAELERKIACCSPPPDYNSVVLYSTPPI
- assay.overview: Inhibition of recombinant human FLT1 (783 to end residues) using KKKSPGEYVNIEF as substrate after 40 mins in presence of [gamma-33ATP] by radiometric scintillation counting analysis
recorded.endpoint: IC50

// IC50 lookup, key: CN(C)c1ccc(C(=O)Nc2cccc(NC(=O)COc3ccc4c(=O)ccoc4c3)c2)cc1
> 10 µM

---

# reported IC50; entries follow
- experimental.system: Rho-associated protein kinase 1 (Homo sapiens)
- Sequence (Q13464 whole entry, the tested form may be a part): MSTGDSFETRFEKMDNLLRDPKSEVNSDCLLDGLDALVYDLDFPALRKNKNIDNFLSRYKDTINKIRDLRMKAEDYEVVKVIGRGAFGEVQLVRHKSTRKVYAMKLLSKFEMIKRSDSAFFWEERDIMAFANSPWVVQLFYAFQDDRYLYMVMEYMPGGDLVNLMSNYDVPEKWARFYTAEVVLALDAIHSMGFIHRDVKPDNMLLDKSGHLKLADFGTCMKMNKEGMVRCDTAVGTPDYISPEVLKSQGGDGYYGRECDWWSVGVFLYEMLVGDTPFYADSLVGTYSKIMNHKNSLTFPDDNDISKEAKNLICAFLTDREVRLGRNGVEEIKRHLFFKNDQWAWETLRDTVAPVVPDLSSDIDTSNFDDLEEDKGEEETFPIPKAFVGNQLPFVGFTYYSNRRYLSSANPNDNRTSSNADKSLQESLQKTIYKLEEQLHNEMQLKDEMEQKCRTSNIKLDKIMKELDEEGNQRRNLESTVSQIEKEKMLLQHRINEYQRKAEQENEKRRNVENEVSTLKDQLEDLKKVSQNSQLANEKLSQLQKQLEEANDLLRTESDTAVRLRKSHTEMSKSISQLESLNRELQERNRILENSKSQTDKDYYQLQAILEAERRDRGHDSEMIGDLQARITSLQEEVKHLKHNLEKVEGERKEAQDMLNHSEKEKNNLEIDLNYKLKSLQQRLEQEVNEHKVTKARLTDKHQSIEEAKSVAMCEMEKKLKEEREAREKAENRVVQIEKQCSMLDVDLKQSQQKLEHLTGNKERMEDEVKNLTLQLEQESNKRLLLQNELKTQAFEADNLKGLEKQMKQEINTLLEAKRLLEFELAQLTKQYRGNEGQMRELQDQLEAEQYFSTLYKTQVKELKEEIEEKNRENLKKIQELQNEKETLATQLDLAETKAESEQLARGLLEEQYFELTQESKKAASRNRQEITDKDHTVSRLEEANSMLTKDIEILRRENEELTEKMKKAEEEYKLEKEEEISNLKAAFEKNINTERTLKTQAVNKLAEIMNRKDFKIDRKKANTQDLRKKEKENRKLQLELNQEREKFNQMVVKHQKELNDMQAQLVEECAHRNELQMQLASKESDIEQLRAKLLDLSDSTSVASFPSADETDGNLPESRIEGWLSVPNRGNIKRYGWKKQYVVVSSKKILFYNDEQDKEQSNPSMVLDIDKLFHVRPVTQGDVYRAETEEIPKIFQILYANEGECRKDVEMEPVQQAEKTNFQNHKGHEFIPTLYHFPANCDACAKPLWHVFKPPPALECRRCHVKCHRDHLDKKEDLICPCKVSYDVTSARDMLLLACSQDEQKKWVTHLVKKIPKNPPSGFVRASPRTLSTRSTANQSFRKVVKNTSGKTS
- assay.overview: Inhibition of recombinant human ROCK1 (17 to 535 residues) using […] as substrate incubated for 40 mins in presence of [gamma-33P]ATP and 10 uM ATP by radiometric scintillation counting analysis
Unit nM implied. Number only.

# entry.smiles, IC50 / nM
rows = [
    ("COC(=O)c1ccc(C(=O)Nc2cccc(NC(=O)COc3ccc4c(=O)ccoc4c3)c2)cc1", 72),
    ("O=C(COc1ccc2c(=O)ccoc2c1)Nc1cccc(NC(=O)c2ccc(Br)cc2)c1", 303),
]

Kindly review the next molecule as well.
Requested field: IC50. Item: NCc1ccc(C(=O)Nc2cccc(NC(=O)COc3ccc4c(=O)ccoc4c3)c2)cc1
532
